- Test system: SNB-78 CNS
- ASSAY PROTOCOL: NCI tumour cell line growth inhibition, 48 h
ATTRIBUTE MEASURED: TGI

Query string: Lab note: record TGI of COc1ccc2c([nH]c3c(O)c(-c4c(C)cc5c([nH]c6c(CC=C(C)C)c(OC)ccc65)c4O)c(C)cc32)c1CC=C(C)C tested on SNB-78 CNS.
Result string: > 100 µM

Query string: Using SNB-78 CNS as the test system, report measured TGI of Cc1ccc2nc(NC(=O)C(=O)CC(=O)c3cccc4ccccc34)sc2c1 .
Result string: > 100 µM

Query string: Find the measured TGI of O=C1C=Cc2ncccc2C1=O with SNB-78 CNS as test system.
Result string: > 66.5 µM

Query string: Given O=C(/C=C/C1C(=O)NC(=O)NC1=O)CC(=O)C(=O)Nc1cc(Cl)c(Cl)cc1Cl , report its TGI on SNB-78 CNS.
Result string: > 100 µM

Query string: Enter recorded TGI with SNB-78 CNS for COc1ccc2c(c1)c1c3n2CCNN=C3CCC1 here.
Result string: > 94.3 µM

Query string: Jot down TGI (SNB-78 CNS) of O=C1CCC(=O)c2sccc2N1 .
Result string: > 100 µM

Query string: Fill in: TGI on SNB-78 CNS, entry CCOC(C)OC1CC(n2cc(C)c(=O)[nH]c2=O)OC1CO (stereo not given)
Result string: > 100 µM

Query string: Name the recorded TGI of COc1ccc(C)cc1C1CCC(=O)O1 (stereo not given) , assay system SNB-78 CNS.
Result string: > 100 µM

Query string: Report its TGI with SNB-78 CNS as the test system: CC(/C=N/N=C(N)N)=N\N=C(N)N
Result string: 147 µM

Query string: Specify TGI for C/C(=N\NS(=O)(=O)c1ccc([N+](=O)[O-])cc1)c1ccc[n+]([O-])n1 , system SNB-78 CNS.
Result string: 51.8 µM

Query string: # return TGI for [CH3][Sn]1([CH3])[O]CC(COc2cc(Cl)c(Cl)cc2Cl)[O]1 (stereo not given) , test system: SNB-78 CNS
Result string: > 100 µM

Query string: Fill in: TGI on SNB-78 CNS, entry C/C(=N\NC(N)=S)c1ccc(C2CCCCC2)cc1
Result string: 91.1 µM

Query string: GET TGI where system = SNB-78 CNS and item = CC(=O)Nc1ccc(-c2nnc(SCC(=O)Nc3ccc(Cl)cc3)o2)cc1
Result string: > 100 µM

Query string: Return reported TGI for target or system SNB-78 CNS, item COC(=O)C(=O)C(C(=O)C(=O)Nc1cc(Cl)c(Cl)cc1Cl)c1nc2ccc([N+](=O)[O-])cc2[nH]c1=O (stereo not given) .
Result string: > 100 µM

Query string: State, for SNB-78 CNS, measured TGI of the compound listed here: N#C/C(=C\c1ccc2[nH]ccc2c1)C(=O)c1ccc(O)c(O)c1
Result string: > 100 µM

---

- System: CAKI-1 renal
- ASSAY PROTOCOL: NCI tumour cell line growth inhibition, 48 h
ATTRIBUTE MEASURED: TGI (µM)
Number only, in µM; omit the unit.

Query string: Report measured TGI; entry is O=C1C=C(N2CCN(CCOCCO)CC2)C(=O)c2c(O)ccc(O)c21
Result string: 29.3

Query string: Give me measured TGI, please, for this molecule: C(=C/c1nc2ccccc2o1)/c1ccc2c(c1)OCO2
Result string: 40

Query string: Look up and report measured TGI for this entry: CC(C)(C)Sc1nnc(SC(C)(C)C)c2c(=O)[nH]nc(SC(C)(C)C)c12
Result string: 16.3

Query string: State its TGI for this molecule: Cc1ccccc1NC(=O)Cc1csc(N=Nc2c(O)[nH]c3ccccc23)n1
Result string: 37.6

Query string: Give the value of TGI reported for the following: CN(C)CCCNC(=O)c1cn2c(ccc3sc4ccccc4c(=O)c32)n1
Result string: 14.8

Query string: Please supply the value of reported TGI for the item COC(=O)C1c2cc3c(c(O)c2C(O)CC1(C)O)C(=O)c1c(O)cc2c(c1C3=O)OC1OC2(C)C(O)C(N(C)C)C1O (configuration not stated)
Result string: 14.2

Query string: Could you please provide reported TGI for CN(C)/C=C/C=C(/C=N/S(=O)(=O)C(F)(F)F)C1C=CN(S(=O)(=O)C(F)(F)F)C=C1 ? Thanks!
Result string: 76.6

Query string: Determine from records and report TGI for CC(/C=N/N=C(N)N)=N\N=C(N)N
Result string: 1010

Query string: Entry C=C(C)[C@@H]1CC[C@]2(CO)CC[C@]3(C)[C@H](CC[C@@H]4[C@@]5(C)CC[C@H](NCO)C(C)(C)[C@@H]5CC[C@]43C)[C@@H]12 needs its TGI filled in; supply it.
Result string: 1.59

Query string: Write down TGI measured for item NS(=O)(=O)c1ccc(NC(=O)c2cccc(NC3=C(Cl)C(=O)N(Cc4ccccc4)C3=O)c2)cc1
Result string: 25.9

Query string: Input COc1ccc(-c2n/c(=C\c3c(O)[nH]c4ccccc34)cc3c2=Nc2ccccc2-3)cc1 , output reported TGI.
Result string: 36.7

Query string: State its TGI: CC[C@@]1(O)C(=O)OCc2c1cc1n(c2=O)Cc2c-1nc1ccccc1c2/C=N\NC(=O)C(N)Cc1c[nH]c2ccccc12 (some centres not stated)
Result string: 2.52

Query string: Answer with reported TGI of O=C(N/N=C\c1ccc([N+](=O)[O-])s1)c1ccncc1
Result string: 49.2

Query string: Please report the measured TGI for O=C1/C(=C\c2ccccc2)C2OCC=C3CN4CCC56c7ccccc7N1C5C2C3CC46 (configuration not stated)
Result string: 32.1

Query string: For the molecule C/C(=N\NS(=O)(=O)c1ccc([N+](=O)[O-])cc1)c1ccc[n+]([O-])n1 , give its reported TGI.
Result string: 6.99

Query string: Tell me measured TGI for CCN(CC)Cc1cc(Nc2c3ccccc3nc3cc(Cl)ccc23)ccc1O please.
Result string: 4.73
